- TEST SYSTEM: patient IgEs
- ASSAY TEXT: ELISA binding assay with patient sera
- Design: species or system human
- RUN CONDITIONS: patient serum 0, plate coated with anti-IgE IgG
Square brackets hold non-standard residues; d marks the D form. Ends that are not written are not given here. Hyp = O=C(O)[C@@H]1C[C@@H](O)CN1
READOUT KIND: EC50 (µM)

>>> df
                                  substance  readout_kind  readout_number
0  Pep2: FITC-tagged epitope 2 peptide used in ELISA (ERDPYS[Hyp]SQDPYS[Hyp]S; also: FITC-tagged, site not given here)          EC50           0.465
